Target: CDK7/cyclinH/MAT1 trimeric complex (Homo sapiens, UniProt P50613)
Sequence (P50613 whole entry): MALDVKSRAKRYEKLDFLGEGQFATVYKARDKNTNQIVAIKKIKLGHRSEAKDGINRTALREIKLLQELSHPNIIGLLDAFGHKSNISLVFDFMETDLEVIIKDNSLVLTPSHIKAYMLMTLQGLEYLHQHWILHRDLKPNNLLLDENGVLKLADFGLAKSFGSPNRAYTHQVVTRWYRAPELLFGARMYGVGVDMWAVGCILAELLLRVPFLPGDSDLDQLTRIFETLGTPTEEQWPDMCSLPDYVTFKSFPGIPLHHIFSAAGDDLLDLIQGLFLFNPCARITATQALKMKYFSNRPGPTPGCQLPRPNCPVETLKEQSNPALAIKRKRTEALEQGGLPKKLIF
Sequence (P51946 whole entry partner): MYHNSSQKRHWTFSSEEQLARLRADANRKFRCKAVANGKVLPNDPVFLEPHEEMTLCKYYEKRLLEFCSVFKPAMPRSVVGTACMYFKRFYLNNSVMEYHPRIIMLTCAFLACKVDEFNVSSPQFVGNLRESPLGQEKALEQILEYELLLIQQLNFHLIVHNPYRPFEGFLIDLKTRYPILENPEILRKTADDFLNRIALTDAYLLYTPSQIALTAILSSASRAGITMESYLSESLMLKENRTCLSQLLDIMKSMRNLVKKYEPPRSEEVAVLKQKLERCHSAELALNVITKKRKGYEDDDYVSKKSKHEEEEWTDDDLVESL
Sequence (P51948 whole entry partner): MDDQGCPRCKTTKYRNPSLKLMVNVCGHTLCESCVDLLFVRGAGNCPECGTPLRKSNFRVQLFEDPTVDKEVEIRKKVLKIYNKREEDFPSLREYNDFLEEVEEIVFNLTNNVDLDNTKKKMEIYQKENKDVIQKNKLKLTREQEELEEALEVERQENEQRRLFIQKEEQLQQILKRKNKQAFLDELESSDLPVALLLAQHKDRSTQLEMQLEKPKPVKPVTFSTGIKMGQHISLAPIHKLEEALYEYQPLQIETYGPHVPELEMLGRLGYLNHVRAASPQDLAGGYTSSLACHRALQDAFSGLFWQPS
Experiment: In vitro CDK7 assay, potency of irreversible covalent inhibitors (kinact/KI), coupled PK/LDH ADP readout at 340 nm
Settings: CDK7 (20 nM enz.) (KI, μM), 20 nM enzyme
assay_metric: Ki (µM)

compound	Ki / µM
C=CC(=O)N1CCC2(CC1)CC(Cc1ccc3c(c1)Nc1nccc(C4CCOCC4)c1CO3)C2	0.445
C=CC(=O)N1CCC(N2CCC(c3cc4c(c(C)n3)OCc3c(N5CCOCC5)ccnc3N4)CC2=O)CC1 (stereo not shown)	0.236

a: C=CC(=O)N1CCC(N2CC(c3cc4c(c(C5CC5)n3)O[C@@H](C)c3c(N5CCOCC5)ccnc3N4)C2)CC1 (single isomer, unassigned)
b: C=CC(=O)N1CC(c2ncc(-c3cc(C)c4c(c3)Nc3nccc(C5CCOCC5)c3CO4)cn2)C1
q: Return label of the item with the larger Ki. Candidates: a , b . Give the chosen item's label as your response.
a: a
(a: 2.12 µM, b: 0.0779 µM)

====

Molecular target: CDK7/cyclinH/MAT1 trimeric complex (Homo sapiens)
Assay: In vitro CDK7 assay, potency of irreversible covalent inhibitors (kinact/KI), coupled PK/LDH ADP readout at 340 nm
Conditions: CDK7 (20 nM enz.) (KI, μM), 20 nM enzyme
assay_metric: Ki (µM)

A selection of reference data follows.
molecule	recorded_value
C=CC(=O)N1CCC(N2CC(c3cc4c(c(C)n3)O[C@@H](C)c3c(C5CCOCC5)ccnc3N4)C2)CC1 (single isomer, unassigned) [Compound 468]	2.21
C=CC(=O)N1CC[C@H](N2CCC(c3cc4c(c(C)n3)OCc3c(N5CCOCC5)ccnc3N4)CC2)C1 (single isomer, unassigned) [Compound 283]	0.187
C=CC(=O)N1CC[C@H](N2CC(c3cc4c(c(C5CC5)n3)OCc3c(N5CCOCC5)ccnc3N4)C2)C1 (single isomer, unassigned) [Compound 447]	0.143
C=CC(=O)N1CC[C@H](N2CC(c3cc4c(c(C5CC5)n3)O[C@@H](C)c3c(N5CCOCC5)ccnc3N4)C2)C1 (single isomer, unassigned) [Compound 466]	0.0307
C=CC(=O)N1CC[C@@H](N2CC(c3cc(C)c4c(c3)Nc3nccc(N5CCOCC5)c3CO4)C2)[C@@H](F)C1 (mixture of isomers) [Compound 202]	0.0239
C#CCCN(C)C/C=C/C(=O)N1CC(N2CCC(c3ccc4c(c3)Nc3nccc(N5CCOCC5)c3[C@@H](C)O4)CC2)C1 (single isomer, unassigned) [Compound 191]	3.09
Cc1nc(C2CCN([C@@H]3CCN(C(=O)/C=C/C(=O)O)C3)CC2)cc2c1OCc1c(-c3cnn(C)c3)ccnc1N2 (single isomer, unassigned) [Compound 330]	4.58
C=CC(=O)N1CCC(n2ccc(-c3cc4c(c(C)n3)OCc3c(N5CCOCC5)ccnc3N4)cc2=O)CC1 [compound 419]	0.273

1: CC#CC(=O)N1CC[C@H](N2CC(c3cc4c(c(C5CC5)n3)O[C@@H](C)c3c(N5CCOCC5)ccnc3N4)C2)C1 (single isomer, unassigned) [Compound 470]
2: C=CC(=O)N1CC[C@@H](N2CCC(c3cc4c(c(C)n3)OCc3c(N5CCOCC5)ccnc3N4)CC2)C1 (single isomer, unassigned) [Compound 363]
q: Please indicate which entry, 1 or 2 , has the lower recorded Ki value. Give the chosen item's label as your response.
a: 2
(2: 0.0272 µM, 1: 0.0394 µM)

A: C=CC(=O)N1CC(N2CC[C@H](c3cc(C)c4c(c3)Nc3nccc(C5CCOCC5)c3CO4)N(C)CC2)C1 (single isomer, unassigned) [Compound 257]
B: C=CC(=O)N1CC(N2CC(c3ccc4c(c3)Nc3nccc(-c5cnn(C)c5)c3C(C)O4)C2)C1 (stereo not drawn) [Compound 197]
C: C=CC(=O)N1CCC(N2CCN(c3cc4c(c(C)n3)OCc3c(N5CCOCC5)ccnc3N4)CC2)CC1 [Compound 389]
q: Rank entries according to their Ki, from the largest number down. Would you mind listing the labels in the order asked for?
a: B, A, C
(B: 0.134 µM, A: 0.0574 µM, C: 0.0199 µM)

A: C=CC(=O)N1CC(N2CCC(c3cc(C)c4c(c3)Nc3nccc(C5CCS(=O)(=O)CC5)c3CO4)CC2)C1 [Compound 133]
B: C=CC(=O)N1CC[C@H](N2CC(c3cc(C)c4c(c3)Nc3nccc(C5CCOCC5)c3CO4)C2)C1 (single isomer, unassigned) [Compound 193]
C: C=CC(=O)N1CC(N2CC[C@H](c3ccc4c(c3)Nc3nccc(N5CCOCC5)c3CO4)[C@@H](F)C2)C1 [Compound 110]
D: CC#CC(=O)N1CCC(N2CC(c3cc4c(c(C5CC5)n3)O[C@@H](C)c3c(N5CCOCC5)ccnc3N4)C2)CC1 (single isomer, unassigned) [Compound 374]
q: Rank entries according to their Ki, from the largest number down. Would you mind listing the labels in the order asked for?
a: D, C, A, B

I: C=CC(=O)N1CC[C@H](N2CC(c3cc4c(c(C)n3)OCc3c(C5CCOCC5)ccnc3N4)C2)[C@H](F)C1 (mixture of isomers) [Compound 236]
II: C=CC(=O)N1CC(N2CC[C@@H](c3ccc4c(c3)Nc3nccc(N5CCOCC5)c3CO4)[C@@H](O)C2)C1 (mixture of isomers) [Compound 228]
q: Please indicate which entry, I or II , has the lower recorded Ki value. Give the chosen item's label as your response.
a: I
(I: 0.084 µM, II: 0.129 µM)
